Target: T1, human SUMO-SHMT2 (Homo sapiens, UniProt P34897 1-504)
T1 sequence: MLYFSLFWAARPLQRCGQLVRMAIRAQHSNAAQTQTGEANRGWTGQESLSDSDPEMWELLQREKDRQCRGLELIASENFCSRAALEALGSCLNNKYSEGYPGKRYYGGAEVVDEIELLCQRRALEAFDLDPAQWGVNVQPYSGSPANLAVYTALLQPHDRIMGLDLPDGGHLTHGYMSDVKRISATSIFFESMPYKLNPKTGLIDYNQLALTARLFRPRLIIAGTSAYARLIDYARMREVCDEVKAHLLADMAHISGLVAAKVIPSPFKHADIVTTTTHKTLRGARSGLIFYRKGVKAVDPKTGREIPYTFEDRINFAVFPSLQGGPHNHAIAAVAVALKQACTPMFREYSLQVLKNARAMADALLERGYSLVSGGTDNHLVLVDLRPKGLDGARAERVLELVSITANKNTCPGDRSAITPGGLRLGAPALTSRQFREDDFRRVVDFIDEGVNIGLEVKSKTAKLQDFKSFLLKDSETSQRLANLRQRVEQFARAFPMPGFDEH
Assay: EMSA; RNA EMSA (LightShift kit): 10 pmol biotin-RNA, 6 ug protein, 1X EMSA binding buffer, 5% glycerol, 0.1 mg/mL tRNA, 20 uL, 30 min, room temperature; salt and pH not stated
Conditions: protein: recombinant; tags: SUMO; chain copies: 4; label: 5' biotin
metric_name: binding result

Specify binding result for GGAAACGAACUAUUUGUAUUUA (ssRNA) [MUT223-244] and stop.
no binding

State its binding result: UGAGUUUCGAAGGAGGGGGG (ssRNA) [156-175]
binds

Read the entry UGAGUUUCGAAGUAUUUGGG (ssRNA) [MUT156-175] and write its reported binding result.
no binding
